All values here come from patent US20220177583A1.

Each entry below lists one item and its recorded pEC50 value.
Target: T1, CLDN9-GFP expressed on engineered HEK293T cells (human, UniProt O95484 1-217)
T1 construct: whole, on cells; also called HEK293T CLDN9-mGFP; Artificial CLDN9+; not shown: GFP tag
T1 sequence (looked up): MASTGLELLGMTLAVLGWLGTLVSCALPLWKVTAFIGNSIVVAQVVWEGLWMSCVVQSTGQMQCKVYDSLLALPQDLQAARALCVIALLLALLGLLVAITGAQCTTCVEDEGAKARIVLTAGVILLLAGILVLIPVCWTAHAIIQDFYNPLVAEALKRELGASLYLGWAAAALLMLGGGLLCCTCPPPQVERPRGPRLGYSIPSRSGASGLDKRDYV
Assay: FACS dose curve, labelled mAb, HEK293T CLDN9-mGFP cells
Convention used: pEC50 is expressed as -log10 of the molar concentration.

Solved entries (count: 2):
binder="AB7 (antibody, V domains shown, Full-length IgG (ExpiCHO)) VH: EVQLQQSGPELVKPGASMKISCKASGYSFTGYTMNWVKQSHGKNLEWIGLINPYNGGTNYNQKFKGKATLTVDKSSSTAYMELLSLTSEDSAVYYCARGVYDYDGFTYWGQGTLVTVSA VL: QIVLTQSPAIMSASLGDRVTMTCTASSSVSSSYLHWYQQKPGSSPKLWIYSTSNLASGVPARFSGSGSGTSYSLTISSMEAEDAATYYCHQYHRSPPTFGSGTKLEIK" readout_name=pEC50 obs_value=5.71
binder="AB6 (antibody, V domains shown, Full-length IgG (ExpiCHO)) VH: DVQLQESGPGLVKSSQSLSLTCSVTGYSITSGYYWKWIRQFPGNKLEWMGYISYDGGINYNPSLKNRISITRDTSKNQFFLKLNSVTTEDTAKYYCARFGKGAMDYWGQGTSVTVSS VL: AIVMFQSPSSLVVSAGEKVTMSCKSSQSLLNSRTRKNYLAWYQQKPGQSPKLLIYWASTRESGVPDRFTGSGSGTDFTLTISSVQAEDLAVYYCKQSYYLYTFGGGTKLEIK" readout_name=pEC50 obs_value=5.56

Could you tell me which pEC50 is on file for AB8 (antibody, V domains shown, Full-length IgG (ExpiCHO)) VH: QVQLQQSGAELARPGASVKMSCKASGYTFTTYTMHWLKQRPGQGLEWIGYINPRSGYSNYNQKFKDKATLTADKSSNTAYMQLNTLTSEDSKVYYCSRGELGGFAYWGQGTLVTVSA VL: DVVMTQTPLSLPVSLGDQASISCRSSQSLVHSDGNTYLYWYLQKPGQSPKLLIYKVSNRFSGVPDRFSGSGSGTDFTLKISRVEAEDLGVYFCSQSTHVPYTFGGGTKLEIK ?
5.56
